- SYSTEM TESTED: rat nNOS (Rattus norvegicus (Rat))
- PROTOCOL DETAILS: Oxyhemoglobin NO capture assay with purified NOS
- Format: biochemical
- MEASUREMENT CONTEXT: Table 9; read-out: Ki Rat nNOS
Label key: yes means Ki under 0.07 µM; no means Ki of 0.07 µM or more.

Is the reported Ki for Cc1cc(N)nc(CCc2cc(F)cc(N3CCNCC3)c2)c1 [Compound 23h] strictly below 0.07 µM?
yes

Is the reported Ki for CCN(CCNC)c1cc(F)cc(CCc2cc(C)cc(N)n2)c1 [Compound 23d] strictly below 0.07 µM?
yes

Is the reported Ki for Cc1cc(N)nc(CCc2cccc(NCCN(C)C)c2)c1 [Compound 10b] strictly below 0.07 µM?
no

Is the reported Ki for Cc1cc(N)nc(CCc2cc(F)cc(NC3CCNCC3)c2)c1 [Compound 23i] strictly below 0.07 µM?
no

Is the reported Ki for CNCCN(c1cc(F)cc(CCc2cc(C)cc(N)n2)c1)C1CC1 [Compound 23e] strictly below 0.07 µM?
yes

Is the reported Ki for Cc1cc(N)nc(CCc2cccc(N(C)CCCN)c2)c1 [Compound 10d] strictly below 0.07 µM?
no

Is the reported Ki for CNCCN(C)c1cc(CCc2cc(C)cc(N)n2)cc(C(F)(F)F)c1 [Compound 19a] strictly below 0.07 µM?
yes

Is the reported Ki for CNCCN(C)c1cccc(CCc2cc(C)cc(N)n2)c1 [Compound 10a] strictly below 0.07 µM?
no

Is the reported Ki for CNCCN(C)c1cc(C#N)cc(CCc2cc(C)cc(N)n2)c1 [Compound 19c] strictly below 0.07 µM?
yes

Is the reported Ki for Cc1cc(N)nc(CCc2cc(F)cc(NCc3cccc(Cl)c3)c2)c1 [Compound 23f] strictly below 0.07 µM?
yes

Is the reported Ki for Cc1cc(N)nc(CCc2cc(F)cc(N(C)CCNC3CC3)c2)c1 [Compound 23c] strictly below 0.07 µM?
yes

###

Could you please report measured pKd for the items listed next?
- SYSTEM TESTED: bsNOS (Bacillus subtilis (strain 168))
- PROTOCOL DETAILS: Imidazole displacement, spectral binding constant KS
- MEASUREMENT CONTEXT: KS (bsNOS), Table 5
To interpret pKd, take it as minus log10 of a concentration measured in moles per litre.

Looking up `CNCCN(C)Cc1cccc(Cc2cc(C)cc(N)n2)c1` , I found its pKd recorded as 5.80

Looking up `Cc1cc(N)nc(-c2ccc(CNCCc3cccc(F)c3)cc2)c1` , I found its pKd recorded as 5.05

Looking up `CCN(CCc1cccc(F)c1)Cc1cccc(NC(=N)c2cccs2)c1` , I found its pKd recorded as 3.92

Looking up `Nc1ccc2cc(CNCCc3cccc(F)c3)ccc2n1` , I found its pKd recorded as 3.38

Looking up `CNCCN(C)Cc1ccc(-c2cc(C)cc(N)n2)cc1` , I found its pKd recorded as 5.20

###

- SYSTEM TESTED: UniProt P29475
Could you please report measured pKi for the items listed next?
To interpret pKi, take it as minus log10 of a concentration measured in moles per litre.

Looking up Cc1cc(N)nc(CCc2cccc(N(C)CCN)c2)c1 [Compound 10c] , I found its pKi recorded as 7.25

Looking up CNCCN(C)c1cncc(CCc2cc(C)cc(N)n2)c1 [Compound 14b] , I found its pKi recorded as 7.23

Looking up Cc1cc(N)nc(CCc2cccc(N(C)CCCN)c2)c1 [Compound 10d] , I found its pKi recorded as 6.96

Looking up Cc1cc(N)nc(CCc2cccc(NCCN(C)C)c2)c1 [Compound 10b] , I found its pKi recorded as 6.95

Looking up CNCCN(C)c1cc(CCc2cc(C)cc(N)n2)cc(C(F)(F)F)c1 [Compound 19a] , I found its pKi recorded as 6.72

Looking up CNCCN(C)c1cccc(CCc2cc(C)cc(N)n2)c1 [Compound 10a] , I found its pKi recorded as 7.01

Looking up CNCCN(C)c1cc(F)cc(CCc2cc(C)cc(N)n2)c1 [Compound 19b] , I found its pKi recorded as 6.98

###

Could you please report measured Ki for the items listed next?
- SYSTEM TESTED: murine iNOS (Mus musculus (Mouse), UniProt P29477)
- PROTOCOL DETAILS: Oxyhemoglobin NO capture assay with purified NOS
- Type: biochemical
- MEASUREMENT CONTEXT: Table 9; read-out: Ki iNOS
Write the number in µM without appending the unit.

Looking up CNCCN(C)c1cc(F)cc(CCc2cc(C)cc(N)n2)c1 [Compound 19b] , I found its Ki recorded as 5.56

Looking up Cc1cc(N)nc(CCc2cc(C#N)cc(N(C)CCNC(C)C)c2)c1 [Compound 21b] , I found its Ki recorded as 45.1

Looking up Cc1cc(N)nc(CCc2cc(C#N)cc(N(C)CCc3cccc(F)c3)c2)c1 [Compound 21d] , I found its Ki recorded as 45.3

Looking up CNCCN(c1cc(F)cc(CCc2cc(C)cc(N)n2)c1)C1CC1 [Compound 23e] , I found its Ki recorded as 8.33

Looking up Cc1cc(N)nc(CCc2cc(C#N)cc(N(C)CCNC3CC3)c2)c1 [Compound 21c] , I found its Ki recorded as 28

###

- SYSTEM TESTED: bsNOS (Bacillus subtilis (strain 168), UniProt O34453)
- Sequence (O34453 whole entry): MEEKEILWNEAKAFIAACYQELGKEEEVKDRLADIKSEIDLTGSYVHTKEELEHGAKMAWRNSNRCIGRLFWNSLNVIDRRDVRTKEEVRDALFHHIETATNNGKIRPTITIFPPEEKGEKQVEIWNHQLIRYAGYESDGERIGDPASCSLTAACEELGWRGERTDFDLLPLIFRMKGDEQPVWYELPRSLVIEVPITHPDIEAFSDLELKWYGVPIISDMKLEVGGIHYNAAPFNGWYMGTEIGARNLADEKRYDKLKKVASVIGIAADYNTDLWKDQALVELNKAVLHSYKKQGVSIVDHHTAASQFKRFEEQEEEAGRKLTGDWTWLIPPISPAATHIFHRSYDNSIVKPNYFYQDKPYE
- PROTOCOL DETAILS: Imidazole displacement, spectral binding constant KS
- MEASUREMENT CONTEXT: KS (bsNOS), Table 5
Could you please report measured pKd for the items listed next?
To interpret pKd, take it as minus log10 of a concentration measured in moles per litre.

Looking up Cc1cc(N)nc(-c2ccc(CNCCCc3cccc(Cl)c3)cc2)c1 [Compound 28] , I found its pKd recorded as 5.49

Looking up Cc1cc(N)nc(CCc2cc(F)cc(NCc3cccc(F)c3)c2)c1 [Compound 25] , I found its pKd recorded as 4.72

Looking up Nc1ccc2ccc(CCNCCCc3cccc(F)c3)cc2n1 [Compound 19] , I found its pKd recorded as 5.44

Looking up Nc1ccc2ccc(CCNCc3cccc(F)c3)cc2n1 [Compound 18] , I found its pKd recorded as 6.01

Looking up Cc1cc(N)nc(CCc2cc(C#N)cc(NCc3cccc(F)c3)c2)c1 [Compound 23] , I found its pKd recorded as 5.02

Looking up Cc1cc(N)nc(COC[C@H](N)[C@H](C)OCc2cc(C)cc(N)n2)c1 [Compound 11] , I found its pKd recorded as 5.96

Looking up Cc1cc(N)nc(CCc2cc(C#N)cc(NCCc3cccc(F)c3)c2)c1 [Compound 22] , I found its pKd recorded as 4.21

###

- SYSTEM TESTED: murine iNOS (Mus musculus (Mouse), UniProt P29477)
- PROTOCOL DETAILS: Oxyhemoglobin NO capture assay with purified NOS
- Assay type: biochemical
METRIC NAME: Ki (µM)
Write the number in µM without appending the unit.

Looking up `Cc1cc(N)nc(-c2ccc(CNCCc3cccc(F)c3)cc2)c1` , I found its Ki recorded as 6.44

###

- PROTOCOL DETAILS: Plasma pharmacokinetics and brain distribution in mice
- Assay type: in vivo, male BALB/c mice
- MEASUREMENT CONTEXT: male, BALB/c, mouse, plasma, iv, 2 mg/kg, i.v. 2 mg/kg
METRIC NAME: half-life (min)
Write the number in min without appending the unit.

Looking up CNCCN(C)c1cc(C#N)cc(CCc2cc(C)cc(N)n2)c1 [Compound 19c] , I found its half-life recorded as 66

###

- SYSTEM TESTED: bovine eNOS (Bos taurus (Bovine))
- PROTOCOL DETAILS: Oxyhemoglobin NO capture assay with purified NOS
- Format: biochemical
- MEASUREMENT CONTEXT: Table 9; read-out: Ki eNOS
METRIC NAME: Ki

Looking up Cc1cc(N)nc(CCc2cccc(N(C)CCN)c2)c1 [Compound 10c] , I found its Ki recorded as 10.7 µM

Looking up CCN(CCNC)c1cc(F)cc(CCc2cc(C)cc(N)n2)c1 [Compound 23d] , I found its Ki recorded as 4.29 µM

Looking up Cc1cc(N)nc(CCc2cc(F)cc(NCc3cccc(Cl)c3)c2)c1 [Compound 23f] , I found its Ki recorded as 7.08 µM

Looking up Cc1cc(N)nc(CCc2cc(F)cc(NCCN(C)C)c2)c1 [Compound 23a] , I found its Ki recorded as 9.58 µM

Looking up Cc1cc(N)nc(CCc2cc(C#N)cc(N(C)CCNC(C)C)c2)c1 [Compound 21b] , I found its Ki recorded as 39.9 µM

Looking up CNCCN(C)c1cc(CCc2cc(C)cc(N)n2)cc(C(F)(F)F)c1 [Compound 19a] , I found its Ki recorded as 15.9 µM

Looking up CNCCN(C)c1cc(F)cc(CCc2cc(C)cc(N)n2)c1 [Compound 19b] , I found its Ki recorded as 30.2 µM

Looking up Cc1cc(N)nc(CCc2cccc(NCCN(C)C)c2)c1 [Compound 10b] , I found its Ki recorded as 23.7 µM

Looking up CCNCCN(C)c1cc(F)cc(CCc2cc(C)cc(N)n2)c1 [Compound 23b] , I found its Ki recorded as 17.9 µM

Looking up CNCCN(C)c1cccc(CCc2cc(C)cc(N)n2)c1 [Compound 10a] , I found its Ki recorded as 20.2 µM
